Data origin: patent US11807625B2

Assay: PK of compound of Formula (Ia) after single subcutaneous dose of solution formulations in beagle dogs
Format: in vivo
Settings: male, beagle, dog, plasma, sc, 12 mg/kg, 1344 h; individual dogs; SC 12 mg/kg; solution U, 500 mg/mL
test_readout: concentration at 1344 h (nM)
Please respond with the number in nM and leave the unit unwritten.

Which measured concentration at 1344 h value corresponds to `CC(C)(C#Cc1ccc(-c2ccc(Cl)c3c(NS(C)(=O)=O)nn(CC(F)(F)F)c23)c([C@H](Cc2cc(F)cc(F)c2)NC(=O)Cn2nc(C(F)(F)F)c3c2C(F)(F)[C@@H]2C[C@H]32)n1)S(C)(=O)=O` ?
43.3

====

Assay: PK of compound of Formula (Ia) after single subcutaneous dose of solution formulations in beagle dogs
Format: in vivo
Details: male, beagle, dog, plasma, sc, 12 mg/kg, male beagle dogs, single SC 12 mg/kg, 500 mg/mL solution X (5.00% ethanol, 1.91% poloxamer 188), mean ± SD, n = 3; read-out: AUC0-168 h
test_readout: AUC(0-t) (µM·h)
Please respond with the number in µM·h and leave the unit unwritten.

Which measured AUC(0-t) value corresponds to `CC(C)(C#Cc1ccc(-c2ccc(Cl)c3c(NS(C)(=O)=O)nn(CC(F)(F)F)c23)c([C@H](Cc2cc(F)cc(F)c2)NC(=O)Cn2nc(C(F)(F)F)c3c2C(F)(F)[C@@H]2C[C@H]32)n1)S(C)(=O)=O` ?
6.01

====

Assay: PK of compound of Formula (Ia) after single subcutaneous dose of solution formulations in Wistar Han rats
Format: in vivo
Details: male, Wistar Han, rat, plasma, sc, 50 mg/kg, 3360 h; individual rats; SC 50 mg/kg; solution V, 300 mg/mL
test_readout: concentration at 3360 h
Don't forget the unit after the value.

Which measured concentration at 3360 h value corresponds to CC(C)(C#Cc1ccc(-c2ccc(Cl)c3c(NS(C)(=O)=O)nn(CC(F)(F)F)c23)c([C@H](Cc2cc(F)cc(F)c2)NC(=O)Cn2nc(C(F)(F)F)c3c2C(F)(F)[C@@H]2C[C@H]32)n1)S(C)(=O)=O [compound of Formula (Ia)] ?
81.1 nM

====

Assay: PK of compound of Formula (Ia) after single subcutaneous dose of solution formulations in beagle dogs
Type: in vivo
Details: male, beagle, dog, plasma, sc, 12 mg/kg, beagle dogs, SC 12 mg/kg, 400 mg/mL solution Z (3.13% poloxamer 188), 504 h, animals #1-#3
Procedure: Formulations containing the compound of Formula (Ia), or a pharmaceutically acceptable salt thereof, were prepared as solutions and optionally administered subcutaneously or intramuscularly to rats, rabbits, and/or dogs. A solution of about 400 mg/mL of the compound of Formula (Ia) having 17.00 w/w % water, 36.40 w/w % PEG 300, 35.20 w/w % of a sodium salt of a compound of Formula (Ia), 5.00 w/w % ethanol, and 6.40 w/w % poloxamer 188 was prepared. […]
test_readout: concentration at 504 h (nM)
Please respond with the number in nM and leave the unit unwritten.

Which measured concentration at 504 h value corresponds to `CC(C)(C#Cc1ccc(-c2ccc(Cl)c3c(NS(C)(=O)=O)nn(CC(F)(F)F)c23)c([C@H](Cc2cc(F)cc(F)c2)NC(=O)Cn2nc(C(F)(F)F)c3c2C(F)(F)[C@@H]2C[C@H]32)n1)S(C)(=O)=O` ?
301

====

Experiment: PK of compound of Formula (Ia) after single subcutaneous dose of solution formulations in Wistar Han rats
Format: in vivo
Details: male, Wistar Han, rat, plasma, sc, 50 mg/kg, 8.00 h; individual rats; SC 50 mg/kg; solution R, 400 mg/mL
test_readout: concentration at 8 h (nM)
Please respond with the number in nM and leave the unit unwritten.

Which measured concentration at 8 h value corresponds to `CC(C)(C#Cc1ccc(-c2ccc(Cl)c3c(NS(C)(=O)=O)nn(CC(F)(F)F)c23)c([C@H](Cc2cc(F)cc(F)c2)NC(=O)Cn2nc(C(F)(F)F)c3c2C(F)(F)[C@@H]2C[C@H]32)n1)S(C)(=O)=O` ?
120

====

Assay: PK of compound of Formula (Ia) after single subcutaneous dose of solution formulations in beagle dogs
Format: in vivo
Details: male, beagle, dog, plasma, sc, 12 mg/kg, beagle dogs, SC 12 mg/kg, 500 mg/mL solution X (5.00% ethanol, 1.91% poloxamer 188), 840 h, Mean n = 3
test_readout: concentration at 840 h

Which measured concentration at 840 h value corresponds to CC(C)(C#Cc1ccc(-c2ccc(Cl)c3c(NS(C)(=O)=O)nn(CC(F)(F)F)c23)c([C@H](Cc2cc(F)cc(F)c2)NC(=O)Cn2nc(C(F)(F)F)c3c2C(F)(F)[C@@H]2C[C@H]32)n1)S(C)(=O)=O [compound of Formula (Ia)] ?
0.0614 µM

====

Experiment: PK of compound of Formula (Ia) after single subcutaneous dose of solution formulations in Wistar Han rats
Format: in vivo
Settings: male, Wistar Han, rat, plasma, sc, 50 mg/kg, male Wistar Han rats, single SC 50 mg/kg, 400 mg/mL solution W (5.00% ethanol, 1.57% poloxamer 188), mean ± SD, n = 3; read-out: AUC0-3024 h
test_readout: AUC(0-t) (µM·h)
Please respond with the number in µM·h and leave the unit unwritten.

Which measured AUC(0-t) value corresponds to `CC(C)(C#Cc1ccc(-c2ccc(Cl)c3c(NS(C)(=O)=O)nn(CC(F)(F)F)c23)c([C@H](Cc2cc(F)cc(F)c2)NC(=O)Cn2nc(C(F)(F)F)c3c2C(F)(F)[C@@H]2C[C@H]32)n1)S(C)(=O)=O` ?
647

====

Experiment: PK of compound of Formula (Ia) after single subcutaneous dose of solution formulations in Wistar Han rats
Type: in vivo
Conditions: male, Wistar Han, rat, plasma, sc, 50 mg/kg, 840 h; mean, n = 5 rats; SC 50 mg/kg; solution U, 500 mg/mL
test_readout: concentration at 840 h
Don't forget the unit after the value.

Which measured concentration at 840 h value corresponds to `CC(C)(C#Cc1ccc(-c2ccc(Cl)c3c(NS(C)(=O)=O)nn(CC(F)(F)F)c23)c([C@H](Cc2cc(F)cc(F)c2)NC(=O)Cn2nc(C(F)(F)F)c3c2C(F)(F)[C@@H]2C[C@H]32)n1)S(C)(=O)=O` ?
261 nM

====

Experiment: PK of compound of Formula (Ia) after single subcutaneous dose of solution formulations in Wistar Han rats
Type: in vivo
Conditions: male, Wistar Han, rat, plasma, sc, 50 mg/kg, Wistar Han rats, SC 50 mg/kg, 400 mg/mL solution Z (3.13% poloxamer 188), 1344 h, Mean n = 4
test_readout: concentration at 1344 h (nM)
Please respond with the number in nM and leave the unit unwritten.

Which measured concentration at 1344 h value corresponds to `CC(C)(C#Cc1ccc(-c2ccc(Cl)c3c(NS(C)(=O)=O)nn(CC(F)(F)F)c23)c([C@H](Cc2cc(F)cc(F)c2)NC(=O)Cn2nc(C(F)(F)F)c3c2C(F)(F)[C@@H]2C[C@H]32)n1)S(C)(=O)=O` ?
138

====

Assay: PK of compound of Formula (Ia) after single subcutaneous dose of solution formulations in beagle dogs
Assay type: in vivo
Conditions: male, beagle, dog, plasma, sc, 12 mg/kg, beagle dogs, SC 12 mg/kg, 400 mg/mL solution Y (water, PEG 300), 1680 h, Mean n = 3
test_readout: concentration at 1680 h (nM)
Please respond with the number in nM and leave the unit unwritten.

Which measured concentration at 1680 h value corresponds to `CC(C)(C#Cc1ccc(-c2ccc(Cl)c3c(NS(C)(=O)=O)nn(CC(F)(F)F)c23)c([C@H](Cc2cc(F)cc(F)c2)NC(=O)Cn2nc(C(F)(F)F)c3c2C(F)(F)[C@@H]2C[C@H]32)n1)S(C)(=O)=O` ?
28.4

====

Experiment: PK of compound of Formula (Ia) after single subcutaneous dose of solution formulations in Wistar Han rats
Type: in vivo
Settings: male, Wistar Han, rat, plasma, sc, 50 mg/kg, mean ± SD, n = 3 rats; SC 50 mg/kg; solution S, 500 mg/mL; read-out: AUC0-1680 h
test_readout: AUC(0-t) (µM·h)
Please respond with the number in µM·h and leave the unit unwritten.

Which measured AUC(0-t) value corresponds to `CC(C)(C#Cc1ccc(-c2ccc(Cl)c3c(NS(C)(=O)=O)nn(CC(F)(F)F)c23)c([C@H](Cc2cc(F)cc(F)c2)NC(=O)Cn2nc(C(F)(F)F)c3c2C(F)(F)[C@@H]2C[C@H]32)n1)S(C)(=O)=O` ?
426

====

Test: PK of compound of Formula (Ia) after single intramuscular dose of solution formulations in Wistar Han rats
Type: in vivo
Details: male, Wistar Han, rat, plasma, intramuscular, 100 mg/kg, Solution J (~400 mg/mL, poloxamer 188); IM 100 mg/kg; Wistar Han rats; individual animals #1-#4; 48.0 h; read-out: Plasma concentration
test_readout: concentration at 48 h (nM)
Please respond with the number in nM and leave the unit unwritten.

Which measured concentration at 48 h value corresponds to `CC(C)(C#Cc1ccc(-c2ccc(Cl)c3c(NS(C)(=O)=O)nn(CC(F)(F)F)c23)c([C@H](Cc2cc(F)cc(F)c2)NC(=O)Cn2nc(C(F)(F)F)c3c2C(F)(F)[C@@H]2C[C@H]32)n1)S(C)(=O)=O` ?
716
